assay: Stability in human liver S9 fraction (HLS9); type: in vitro ADME; conditions: human liver S9 0.4 mg protein/mL, 5 μM test compound, 37° C.
quantity: CLint Liver S9 (µL/min/mg)

Field: example entries. Status: answers known.
CCC[C@H](C)OC(=O)[C@H](C)NP(=O)(OC[C@H]1OC[C@@H](n2ccc(N)nc2=O)O1)Oc1ccccc1 (single isomer, unassigned; dia-1) [20 dia-1] = 45
CCCCCCCCCCCCCCCC(=O)Nc1ccn([C@@H]2CO[C@H](COP(=O)(N[C@@H](C)C(=O)OC(C)C)Oc3ccccc3)O2)c(=O)n1 (single isomer, unassigned; dia-2) = 34

1. COC(=O)[C@H](C)NP(=O)(OC[C@H]1OC[C@@H](n2ccc(N)nc2=O)O1)Oc1ccccc1 (single isomer, unassigned; dia-2) [26 dia-2]
2. Nc1ccn([C@@H]2CO[C@H](COP(=O)(N[C@@H](Cc3ccccc3)C(=O)OC3CCCCC3)Oc3ccc(Br)cc3)O2)c(=O)n1 (single isomer, unassigned; dia-2) [7 dia-2]
3. CC(C)OC(=O)[C@H](C)NP(=O)(OC[C@H]1OC[C@@H](n2ccc(N)nc2=O)O1)Oc1cccc2ccccc12 (single isomer, unassigned; dia-1) [5 dia-1]
In this exercise, place the 3 compounds in ascending sequence of their recorded CLint Liver S9. Field: ranking. Enter the labels in the order requested.
1, 3, 2
(1: 10 µL/min/mg, 3: 32 µL/min/mg, 2: 60 µL/min/mg)

---

Catalogue of CC50 values
system: HepG2; experiment: Cell cytotoxicity assay, HEPG2; assay type: cell-based; conditions: HepG2 cells, 5 days at 37° C., XTT dye
Only the number, expressed in nM, is required.

Entry CC[C@@H](C)OC(=O)[C@H](C)NP(=O)(OC[C@H]1OC[C@@H](n2ccc(N)nc2=O)O1)Oc1ccc([Si](C)(C)C)cc1 (single isomer, unassigned; dia-1) [11 dia-1] , system HepG2: what CC50 was measured?
54

---

experiment: Stability in human intestinal S9 fraction (HIS9); format: in vitro ADME; conditions: human intestinal S9 0.4 mg protein/mL, 5 μM test compound, 37° C.
quantity: CLint Intestinal S9 (µL/min/mg)

CC(C)OC(=O)[C@H](C)NP(=O)(OC[C@H]1OC[C@@H](n2ccc(N)nc2=O)O1)Oc1ccccc1 (single isomer, unassigned) [Example 2] = 6
CCC(CC)COC(=O)[C@H](C)NP(=O)(OC[C@H]1OC[C@@H](n2ccc(N)nc2=O)O1)Oc1ccccc1 (single isomer, unassigned; dia-2) [15 dia-2] = 36
COC(=O)[C@H](C)NP(=O)(OC[C@H]1OC[C@@H](n2ccc(N)nc2=O)O1)Oc1ccc(Br)cc1 (single isomer, unassigned) [27 dia-2] = 6
Nc1ccn([C@@H]2CO[C@H](COP(=O)(N[C@@H](Cc3ccccc3)C(=O)OCc3ccccc3)Oc3cccc(C4CC4)c3)O2)c(=O)n1 (single isomer, unassigned; dia-1) [12 dia-1] = 300
C[C@H](NP(=O)(OC[C@H]1OC[C@@H](n2ccc(N)nc2=O)O1)Oc1cccc2ccccc12)C(=O)OCc1ccccc1 (single isomer, unassigned; dia-1) [9 dia-1] = 171
COC(=O)[C@H](C)NP(=O)(OC[C@H]1OC[C@@H](n2ccc(N)nc2=O)O1)Oc1ccccc1 (single isomer, unassigned; dia-1) [26 dia-1] = 6
CCC[C@H](C)OC(=O)[C@H](C)NP(=O)(OC[C@H]1OC[C@@H](n2ccc(N)nc2=O)O1)Oc1ccccc1 (single isomer, unassigned; dia-2) [20 dia-2] = 6
CCC[C@H](C)OC(=O)[C@H](C)NP(=O)(OC[C@H]1OC[C@@H](n2ccc(N)nc2=O)O1)Oc1ccc(C2CC2)cc1 (single isomer, unassigned; dia-1) [16 dia-1] = 8
COC(=O)[C@H](C)NP(=O)(OC[C@H]1OC[C@@H](n2ccc(N)nc2=O)O1)Oc1ccccc1 (single isomer, unassigned; dia-2) [26 dia-2] = 6
C[C@H](NP(=O)(OC[C@H]1OC[C@@H](n2ccc(N)nc2=O)O1)Oc1cccc2ccccc12)C(=O)OC1CCCCC1 (single isomer, unassigned; dia-2) [6 dia-2] = 25

a. CC[C@@H](C)OC(=O)[C@H](C)NP(=O)(OC[C@H]1OC[C@@H](n2ccc(N)nc2=O)O1)Oc1ccccc1 (single isomer, unassigned; dia-2) [18 dia-2]
b. CC(C)OC(=O)[C@H](C)NP(=O)(OC[C@H]1OC[C@@H](n2ccc(N)nc2=O)O1)Oc1cccc2ccccc12 (single isomer, unassigned; dia-1) [5 dia-1]
c. CCCC(CCC)COC(=O)[C@H](C)NP(=O)(OC[C@H]1OC[C@@H](n2ccc(N)nc2=O)O1)Oc1cccc2ccccc12 (single isomer, unassigned; dia-1) [14 dia-1]
Place the items in sequence of falling CLint Intestinal S9. Field: ranking. Enter the labels in the order requested.
c, b, a

A. CC(C)OC(=O)[C@@H](C)NP(=O)(OC[C@H]1OC[C@@H](n2ccc(N)nc2=O)O1)Oc1ccccc1 (single isomer, unassigned; dia-1) [17 dia-1]
B. CC[C@@H](C)OC(=O)[C@H](C)NP(=O)(OC[C@H]1OC[C@@H](n2ccc(N)nc2=O)O1)Oc1cccc(C2CCC2)c1 (single isomer, unassigned; dia-2) [33 dia-2]
Which is greater in CLint Intestinal S9, the first item A or the second item B ? Give the chosen item's label as your response.
B

A. C[C@H](NP(=O)(OC[C@H]1OC[C@@H](n2ccc(N)nc2=O)O1)Oc1ccccc1)C(=O)OCc1ccccc1 (single isomer, unassigned; dia-1) [19 dia-1]
B. C[C@H](NP(=O)(OC[C@H]1OC[C@@H](n2ccc(N)nc2=O)O1)Oc1ccccc1)C(=O)OCc1ccccc1 (single isomer, unassigned; dia-2) [19 dia-2]
Could you check which of A and B has a smaller value for CLint Intestinal S9? Give the chosen item's label as your response.
B

1. CCCC(CCC)COC(=O)[C@H](C)NP(=O)(OC[C@H]1OC[C@@H](n2ccc(N)nc2=O)O1)Oc1ccc(Br)cc1 (single isomer, unassigned; dia-2) [23 dia-2]
2. CCCC(CCC)COC(=O)[C@H](C)NP(=O)(OC[C@H]1OC[C@@H](n2ccc(N)nc2=O)O1)Oc1ccc(Br)cc1 (single isomer, unassigned; dia-1) [23 dia-1]
Could you check which of 1 and 2 has a smaller value for CLint Intestinal S9? Give the chosen item's label as your response.
1
